Where do these numbers come from? They come from PubChem BioAssay (NCI).

- procedureDetails: NCI Yeast Anticancer Drug Screen. Data for the bub3 strain (AID 167)
- measurementConditions: S. cerevisiae bub3 mutant strain, at 50.0 µM, stronger effect = higher value
Compounds without any hit were thinned out: in the full panel of roughly 79,000, 15% have a hit.
readoutKind: growth inhibition (%)
The answer is to be given in %; state only the numeric part.

CCN(C(=N)C#N)c1ccccc1    29.9
CC1=N/C(=C/c2ccccc2)C(=O)O1    12.5
O=C(Cn1c(=O)oc2ccc(C(=O)c3ccccc3Cl)cc21)c1ccc([N+](=O)[O-])cc1    -2.25
N#Cc1c(N)nc([Se]CC(=O)c2ccc(Cl)cc2)c(C#N)c1-c1ccco1    4.1
CN(C)c1cc2ccccc2oc1=O    9
O=C(NC1CCCCC1)c1ccccc1Cl    -10.2
CCC(=O)NCCCCC1CCCC[N+]1(C)C (centres undefined)    -2
O=C(Nc1cc([N+](=O)[O-])ccc1F)Oc1ccc(OCc2ccccc2)cc1    -2.55

Now for a further compound.
Task: If you can, please state the reported growth inhibition value of C[N+]1(C)CC2C3C=C(I)C(C3)C2C1 (centres undefined) .
Output: 11.9
